Molecular target: Fatty acid amid hydrolase (FAAH) (Rattus norvegicus, UniProt P97612)
Construct: source is rat brain; tissue MDS Pharma Services; host or cells: rat brain
Sequence (P97612 whole entry): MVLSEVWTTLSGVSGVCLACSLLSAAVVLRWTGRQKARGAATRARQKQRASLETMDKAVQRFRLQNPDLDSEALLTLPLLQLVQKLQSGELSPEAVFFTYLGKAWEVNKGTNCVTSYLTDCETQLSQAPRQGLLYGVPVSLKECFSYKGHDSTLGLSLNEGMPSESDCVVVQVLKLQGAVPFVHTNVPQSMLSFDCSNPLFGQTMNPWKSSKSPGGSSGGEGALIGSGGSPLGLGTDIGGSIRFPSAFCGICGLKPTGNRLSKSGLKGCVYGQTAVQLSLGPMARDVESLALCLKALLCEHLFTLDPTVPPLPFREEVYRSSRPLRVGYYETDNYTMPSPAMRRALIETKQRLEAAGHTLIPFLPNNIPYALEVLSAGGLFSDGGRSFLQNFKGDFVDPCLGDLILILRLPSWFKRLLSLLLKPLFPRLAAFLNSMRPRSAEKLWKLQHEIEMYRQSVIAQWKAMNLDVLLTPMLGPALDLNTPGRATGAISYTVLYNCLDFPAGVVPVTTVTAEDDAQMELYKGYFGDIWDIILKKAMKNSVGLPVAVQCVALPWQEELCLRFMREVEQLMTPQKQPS
Assay: FAAH in vitro enzyme assay (MDS Pharma Services)
Format: biochemical
Conditions: rat brain source; substrate Anandamide+[3H]Anandamide
pIC50: −log10 of the molar value.

{"compound": "CCCCCCCC(=O)OCC(O)CO (racemic) [GMCY, 1-glyceryl monocaprylate]", "assay-target": "Fatty acid amid hydrolase (FAAH) (Rattus norvegicus, UniProt P97612)", "pIC50": 4.28}

----------
Target: Protein tyrosine kinase enzyme Syk (Homo sapiens, UniProt P43405)
result-type: IC50 (µM)

{"molecule": "CCCCCCCC(=O)OCC(O)CO (racemic) [GMCY, 1-glyceryl monocaprylate]", "result-type": "IC50", "recorded-measurement": 61}
